System: Candida albicans NCYC 597
Assay: Disc diffusion antifungal test (zones of inhibition, approximate MIC)
Format: cell-based
Conditions: Candida albicans, NCYC597, read-out: MIC C. albicans, Table 1, Group 1 tests
property.measured: MIC (µg/mL)

molecule	test.value
C[C@H](CCC(=O)O)[C@H]1CC[C@H]2[C@@H]3[C@H](O)C[C@@H]4C[C@H](O)CC[C@]4(C)[C@H]3C[C@H](O)[C@]12C [Cholic acid, reference compound]	390
C[C@H](CCC(=O)O)[C@H]1CC[C@H]2[C@@H]3[C@H](O)C[C@@H]4C[C@H](O)CC[C@]4(C)[C@H]3CC[C@]12C [Chenodeoxycholic acid, reference compound]	140
COC(=O)CC[C@@H](C)[C@H]1CC[C@H]2[C@@H]3[C@H](O)C[C@@H]4C[C@H](O)CC[C@]4(C)[C@H]3CC[C@]12C [Methyl chenodeoxycholate, methyl chenodeoxycholate]	20
C[C@H](CCC(=O)O)[C@H]1CC[C@H]2[C@@H]3CC[C@@H]4C[C@H](O)CC[C@]4(C)[C@H]3C[C@H](O)[C@]12C [Deoxycholic acid, reference compound]	2100

* * *

Test system: Trichophyton mentagrophytes NCPF 224
Assay: Disc diffusion antifungal test (zones of inhibition, approximate MIC)
Type: cell-based
Conditions: NCPF224, Table 1, Group 1 tests, read-out: MIC T. ment.
property.measured: MIC (µg/mL)

molecule	readout.units	test.value
COC(=O)CC[C@@H](C)[C@H]1CC[C@H]2[C@@H]3CC[C@@H]4C[C@H](O)CC[C@]4(C)[C@H]3C[C@H](O)[C@]12C [Methyl deoxycholate, methyl deoxycholate]	µg/mL	900
COC(=O)CC[C@@H](C)[C@H]1CC[C@H]2[C@@H]3[C@H](O)C[C@@H]4C[C@H](O)CC[C@]4(C)[C@H]3C[C@H](O)[C@]12C [Methyl cholate, methyl cholate]	µg/mL	80
C[C@H](CCC(=O)O)[C@H]1CC[C@H]2[C@@H]3CC[C@@H]4C[C@H](O)CC[C@]4(C)[C@H]3C[C@H](O)[C@]12C [Deoxycholic acid, reference compound]	µg/mL	300
C[C@H](CCC(=O)O)[C@H]1CC[C@H]2[C@@H]3[C@H](O)C[C@@H]4C[C@H](O)CC[C@]4(C)[C@H]3CC[C@]12C [Chenodeoxycholic acid, reference compound]	µg/mL	1300

* * *

In this section we review reported log10(MIC) values for a set of molecules.
Test system: Microsporum audonii NCPF 638
Assay: Disc diffusion antifungal test (zones of inhibition, approximate MIC)
Format: cell-based
Settings: Microsporum, NCPF638, Table 1, Group 1 tests; read-out: MIC M. aud.
Method: Candida albicans NCYC 597; Trichophyton mentagrophytes NCPF 224 and Microsporum audonii NCPF 638 were used throughout as test organisms. These are open deposits at the National Collection of Yeast Cultures, Norwich UK and the National Collection of Pathogenic Fungi of the Commonwealth Mycological Institute, Kew UK. […] After 24 h incubation the diameters of zones of inhibition were measured. After a further 24 h incubation, the plates were re-examined and zones re-measured. […]
property.measured: log10(MIC) (log10 of the value in µg/mL)

molecule	test.value
COC(=O)CC[C@@H](C)[C@H]1CC[C@H]2[C@@H]3[C@H](O)C[C@@H]4C[C@H](O)CC[C@]4(C)[C@H]3C[C@H](O)[C@]12C [Methyl cholate, methyl cholate]	1.70
C[C@H](CCC(=O)O)[C@H]1CC[C@H]2[C@@H]3CC[C@@H]4C[C@H](O)CC[C@]4(C)[C@H]3CC[C@]12C [Lithocholic acid, reference compound]	2.00
COC(=O)CC[C@@H](C)[C@H]1CC[C@H]2[C@@H]3CC[C@@H]4C[C@H](O)CC[C@]4(C)[C@H]3C[C@H](O)[C@]12C [Methyl deoxycholate, methyl deoxycholate]	2.72
C[C@H](CCC(=O)O)[C@H]1CC[C@H]2[C@@H]3CC[C@@H]4C[C@H](O)CC[C@]4(C)[C@H]3C[C@H](O)[C@]12C [Deoxycholic acid, reference compound]	1.48
C[C@H](CCC(=O)O)[C@H]1CC[C@H]2[C@@H]3[C@H](O)C[C@@H]4C[C@H](O)CC[C@]4(C)[C@H]3CC[C@]12C [Chenodeoxycholic acid, reference compound]	3.00

Source of measurements: patent US5266566A
